measuredTarget: PI3Kγ (p101/p110γ protein) (Homo sapiens)
Construct: HA
testDetails: PI3Kγ In Vitro Kinase Assay
runParameters: purified recombinant p101/p110γ with G protein β1/γ2 subunits; 20 μM ATP, 25 μM PIP2; 20 minutes at room temperature
Reported IC50 values for the following compounds.
quantity: IC50 (µM)

                                inputsmiles  numericresult
0  O=C1NC(=S)SC1=Cc1ccc2c(c1)N(CCCc1cccc(Cl)c1Cl)C(=O)CO2          0.043
1  O=C1NC(=S)OC1=Cc1ccc2c(c1)N(CC1CCCCC1)C(=O)CO2          0.002
2  CS(=O)(=O)c1cccc(CN2C(=O)COc3ccc(/C=C4\SC(=S)NC4=O)cc32)c1          0.011
3  COc1ccc(C(C)(C)C)cc1CN1C(=O)COc2ccc(C=C3SC(=S)NC3=O)cc21          0.225

---

measuredTarget: PI3Kγ (p101/p110γ protein) (Homo sapiens, UniProt P48736)
Construct: HA; made in house; host or cells: Spodoptera frugiperda (Sf9) cells, baculovirus co-infection
Sequence (P48736 whole entry, species assumed): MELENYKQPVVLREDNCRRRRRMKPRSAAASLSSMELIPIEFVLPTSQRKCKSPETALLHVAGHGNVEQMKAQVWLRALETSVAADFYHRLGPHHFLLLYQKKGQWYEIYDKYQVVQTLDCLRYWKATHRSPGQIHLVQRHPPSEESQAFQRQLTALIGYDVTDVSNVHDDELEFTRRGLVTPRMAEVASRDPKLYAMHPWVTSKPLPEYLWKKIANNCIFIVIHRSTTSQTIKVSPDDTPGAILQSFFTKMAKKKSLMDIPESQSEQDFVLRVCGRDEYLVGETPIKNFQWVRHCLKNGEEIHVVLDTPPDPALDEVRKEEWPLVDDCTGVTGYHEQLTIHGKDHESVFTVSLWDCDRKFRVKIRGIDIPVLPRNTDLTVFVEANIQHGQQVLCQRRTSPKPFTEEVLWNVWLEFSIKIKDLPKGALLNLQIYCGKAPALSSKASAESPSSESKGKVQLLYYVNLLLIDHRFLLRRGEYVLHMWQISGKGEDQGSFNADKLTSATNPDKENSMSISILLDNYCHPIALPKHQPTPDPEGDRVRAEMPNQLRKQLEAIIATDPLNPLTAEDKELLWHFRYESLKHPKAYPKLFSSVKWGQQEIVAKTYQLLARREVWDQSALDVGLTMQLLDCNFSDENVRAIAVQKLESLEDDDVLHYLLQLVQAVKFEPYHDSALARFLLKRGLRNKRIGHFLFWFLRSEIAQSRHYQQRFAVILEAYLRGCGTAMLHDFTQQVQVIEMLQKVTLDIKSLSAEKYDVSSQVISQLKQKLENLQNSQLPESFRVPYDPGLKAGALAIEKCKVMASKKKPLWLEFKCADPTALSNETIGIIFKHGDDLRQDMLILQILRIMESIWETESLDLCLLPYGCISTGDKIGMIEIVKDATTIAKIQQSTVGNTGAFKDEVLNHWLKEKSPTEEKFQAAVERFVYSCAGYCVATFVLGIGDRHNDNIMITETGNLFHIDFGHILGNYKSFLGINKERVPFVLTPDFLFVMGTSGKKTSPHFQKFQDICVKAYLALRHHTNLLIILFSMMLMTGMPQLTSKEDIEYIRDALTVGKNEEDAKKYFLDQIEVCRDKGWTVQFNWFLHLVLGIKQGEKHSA
Sequence (Q8WYR1 whole entry partner, species assumed): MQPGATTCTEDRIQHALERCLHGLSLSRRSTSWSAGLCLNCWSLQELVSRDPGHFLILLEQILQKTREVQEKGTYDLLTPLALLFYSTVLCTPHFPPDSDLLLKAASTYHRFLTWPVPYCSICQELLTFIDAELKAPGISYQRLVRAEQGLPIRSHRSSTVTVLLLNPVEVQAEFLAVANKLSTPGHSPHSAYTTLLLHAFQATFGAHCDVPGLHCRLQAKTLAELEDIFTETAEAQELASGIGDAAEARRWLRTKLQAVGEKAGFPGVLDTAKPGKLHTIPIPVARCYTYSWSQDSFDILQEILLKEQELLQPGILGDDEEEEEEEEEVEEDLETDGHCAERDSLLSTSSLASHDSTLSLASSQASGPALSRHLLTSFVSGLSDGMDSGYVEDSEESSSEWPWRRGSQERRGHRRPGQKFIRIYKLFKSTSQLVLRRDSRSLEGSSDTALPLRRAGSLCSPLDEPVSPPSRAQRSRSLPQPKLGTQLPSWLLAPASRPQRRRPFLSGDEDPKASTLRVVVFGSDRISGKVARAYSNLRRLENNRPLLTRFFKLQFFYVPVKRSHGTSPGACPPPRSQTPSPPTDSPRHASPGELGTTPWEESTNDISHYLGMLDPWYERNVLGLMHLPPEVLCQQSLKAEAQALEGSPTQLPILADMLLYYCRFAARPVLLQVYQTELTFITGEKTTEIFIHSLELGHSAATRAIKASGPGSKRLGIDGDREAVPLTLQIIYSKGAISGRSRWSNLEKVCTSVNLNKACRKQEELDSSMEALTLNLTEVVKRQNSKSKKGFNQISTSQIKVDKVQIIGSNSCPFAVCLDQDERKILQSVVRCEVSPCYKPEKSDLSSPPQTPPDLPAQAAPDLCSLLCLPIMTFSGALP
testDetails: PI3Kγ In Vitro Kinase Assay
Format: biochemical
runParameters: purified recombinant p101/p110γ with G protein β1/γ2 subunits; 20 μM ATP, 25 μM PIP2; 20 minutes at room temperature
Experimental: Spodtera frugiperda cells, grown in ESF921 media, were coinfected with baculovirus expressing a glu-tagged p101 and baculovirus expressing an HA-tagged p110γ, at a 3:1 ratio of p101 baculovirus to p110γ baculovirus. […] The presence of radioactive lipid product (PIP3) was measured by adding Wallac Optiphase mix to each well and counting in a Wallac 1450 Trilux plate reader (PerkinElmer Life Sciences Inc., Boston, Mass. 02118).
Strictly below 0.01 µM in IC50: condition met. Otherwise: condition not met.

>>> print(df.to_string())
                                   molecule              label
0  O=C1NC(=S)SC1=Cc1ccc2c(c1)N(Cc1ccc3ccccc3c1)C(=O)CO2 [Example 11]  condition not met
1  O=C1NC(=S)S/C1=C\c1ccc2c(c1)N(Cc1ccc(C(=O)O)cc1)C(=O)CO2  condition not met
2  O=C1NC(=S)SC1=Cc1ccc2c(c1)N(Cc1ccc(Cl)cc1)C(=O)CO2      condition met
3  Cc1cc(C=C2SC(=S)NC2=O)cc2c1OCC(=O)N2Cc1cc(C(C)(C)C)nc(C(C)(C)C)c1  condition not met
4  CS(=O)(=O)c1cccc(CN2C(=O)COc3c(F)cc(C=C4SC(=S)NC4=O)cc32)c1  condition not met
5  O=C1NC(=O)C(=Cc2ccc3c(c2)N(Cc2ccncc2)C(=O)CO3)S1  condition not met
6  O=C1NC(=S)SC1=Cc1ccc2c(c1)N(Cc1ccccc1)C(=O)CO2 [Example 180]      condition met
7  CC(C)(O)c1cc(Cl)cc(CN2C(=O)COc3c(F)cc(C=C4SC(=S)NC4=O)cc32)c1  condition not met

---

Reported pIC50 values for the following molecules.
measuredTarget: PI3Kγ (p101/p110γ protein) (Homo sapiens, UniProt P48736)
Construct: HA
testDetails: PI3Kγ In Vitro Kinase Assay
runParameters: purified recombinant p101/p110γ with G protein β1/γ2 subunits; 20 μM ATP, 25 μM PIP2; 20 minutes at room temperature
pIC50: −log10 of the molar value.
quantity: pIC50

In [3]: df
Out[3]:
                                    molecule  numericresult
 0  CC(C)(C)OC(=O)N1CCN(C(=O)CN2C(=O)COc3ccc(C=C4SC(=S)NC4=O)cc32)CC1           5.50
 1  O=C1NC(=S)SC1=Cc1ccc2c(c1)N(Cc1cccc(-c3ccncc3)c1)C(=O)CO2           8.30
 2  CC(C)(C)c1cc(CN2C(=O)COc3ccc(C=C4OC(=S)NC4=O)cc32)cc(C(C)(C)C)c1           8.00
 3  O=C1NC(=S)SC1=Cc1cc(F)c2c(c1)N(Cc1ccc(Cl)s1)C(=O)CO2           8.30
 4  CC(C)(O)c1cc(CN2C(=O)COc3ccc(C=C4SC(=S)NC4=O)cc32)ccc1Cl           8.15
 5  O=C1NC(=S)SC1=Cc1ccc2c(c1)N(Cc1ccc(CN3CCN(c4ccccc4)CC3)cc1)C(=O)CO2           7.92
 6  O=C1NC(=S)SC1=Cc1ccc2c(c1)N(Cc1cc(F)c(O)c(F)c1)C(=O)CO2           8.40
 7  O=C1NC(=S)SC1=Cc1ccc2c(c1)N(Cc1ccc(CN3CCCCC3)cc1)C(=O)CO2           8.10
 8  Cc1cc(C)cc(CN2C(=O)COc3c(F)cc(C=C4SC(=S)NC4=O)cc32)c1           8.10
 9  O=C1NC(=S)SC1=Cc1ccc2c(c1)N(OCc1ccccc1)C(=O)CO2           8.40
10  CCCCN1CCN(Cc2ccc(CN3C(=O)COc4ccc(C=C5SC(=S)NC5=O)cc43)cc2)CC1           7.68
11  Cc1cc(C)nc(CN2C(=O)COc3ccc(C=C4SC(=S)NC4=O)cc32)n1           6.90
12     O=C1COc2c(Cl)cc(C=C3SC(=S)NC3=O)cc2N1           7.21
13  O=C1NC(=S)SC1=Cc1ccc2c(c1)N(CCc1ccc(Cl)cc1Cl)C(=O)CO2           8.30
14  CC(C)(C)c1cc(CN2C(=O)CSc3ccc(C=C4SC(=S)NC4=O)cc32)cc(C(C)(C)C)c1           5.43
15  CC(C)(C)c1cc(CN2C(=O)COc3ccc(C=C4SC(=S)NC4=O)cc32)cc(C(C)(C)O)c1           8.22
16  O=C1NC(=S)SC1=Cc1cc(Cl)c2c(c1)N(CCc1ccc(C(F)(F)F)cc1)C(=O)CO2           7.14
17  CC1CC(C)CN(C(=O)CN2C(=O)COc3ccc(C=C4SC(=S)NC4=O)cc32)C1 (stereo not drawn)           5.68

---

measuredTarget: PI3Kγ (p101/p110γ protein) (Homo sapiens, UniProt P48736)
Construct: HA
testDetails: PI3Kγ In Vitro Kinase Assay
runParameters: purified recombinant p101/p110γ with G protein β1/γ2 subunits; 20 μM ATP, 25 μM PIP2; 20 minutes at room temperature
pIC50: −log10 of the molar value.
Label rule, in plain words: pIC50 of 8 and up is 1.0, under 8 is 0.0.

>>> df
                                inputsmiles                            measuredtarget  label
0  Cc1cc(C)cc(CON2C(=O)COc3ccc(C=C4SC(=S)NC4=O)cc32)c1  PI3Kγ (p101/p110γ protein) (Homo sapiens, UniProt P48736)    1.0
1  CCN(CC)Cc1ccc(CN2C(=O)COc3c(Cl)cc(C=C4SC(=S)NC4=O)cc32)cc1  PI3Kγ (p101/p110γ protein) (Homo sapiens, UniProt P48736)    0.0

---

measuredTarget: PI3Kγ (p101/p110γ protein) (Homo sapiens)
Construct: HA
testDetails: PI3Kγ In Vitro Kinase Assay
runParameters: purified recombinant p101/p110γ with G protein β1/γ2 subunits; 20 μM ATP, 25 μM PIP2; 20 minutes at room temperature
pIC50: −log10 of the molar value.
quantity: pIC50

                                inputsmiles                            measuredtarget  numericresult
0  CC(C)(O)c1cc(CN2C(=O)COc3ccc(C=C4SC(=O)NC4=O)cc32)ccc1F  PI3Kγ (p101/p110γ protein) (Homo sapiens)           7.80
1  O=C1NC(=S)SC1=Cc1ccc2c(c1)N(Cc1cccc(I)c1)C(=O)CO2  PI3Kγ (p101/p110γ protein) (Homo sapiens)           7.82
2  O=C1NC(=S)SC1=Cc1ccc2c(c1)N(Cc1ccc(Oc3cccc4ccccc34)cc1)C(=O)CO2  PI3Kγ (p101/p110γ protein) (Homo sapiens)           8.10

---

Reported pIC50 values for the following compounds.
measuredTarget: PI3Kγ (p101/p110γ protein) (Homo sapiens)
Construct: HA
testDetails: PI3Kγ In Vitro Kinase Assay
runParameters: purified recombinant p101/p110γ with G protein β1/γ2 subunits; 20 μM ATP, 25 μM PIP2; 20 minutes at room temperature
pIC50: −log10 of the molar value.
quantity: pIC50

                                   compound  numericresult
0  COc1cc(CCCN2C(=O)COc3ccc(C=C4SC(=S)NC4=O)cc32)cc(OC)c1OC [Example 124]           7.82
1  O=C1NC(=S)SC1=Cc1cc(Cl)c2c(c1)N(Cc1ccccc1)C(=O)CO2 [Example 50]           8.00
2  CC(C)(C)c1cc(I)cc(CN2C(=O)COc3ccc(C=C4SC(=S)NC4=O)cc32)c1 [Example 52]           7.80
